target-of-assay: purified VPS29 (human, UniProt Q9UBQ0 1-182)
assay-comment: ITC
readout-type: pKd
Reminder that pKd is minus the log10 of a molar concentration.

q: Let me know recorded pKd for EFGDYHPLKP [VPS35L^28-37 peptide] , thanks.
a: 5.17

From: paper doi:10.1101/2023.01.25.525455
